- STUDY SYSTEM: human mGluR5a receptor (Homo sapiens, UniProt P41594)
- Construct: cDNA subcloned into pcDNA3.1(-)
- Sequence (P41594 21-1180 isoform P41594-2 limits assumed): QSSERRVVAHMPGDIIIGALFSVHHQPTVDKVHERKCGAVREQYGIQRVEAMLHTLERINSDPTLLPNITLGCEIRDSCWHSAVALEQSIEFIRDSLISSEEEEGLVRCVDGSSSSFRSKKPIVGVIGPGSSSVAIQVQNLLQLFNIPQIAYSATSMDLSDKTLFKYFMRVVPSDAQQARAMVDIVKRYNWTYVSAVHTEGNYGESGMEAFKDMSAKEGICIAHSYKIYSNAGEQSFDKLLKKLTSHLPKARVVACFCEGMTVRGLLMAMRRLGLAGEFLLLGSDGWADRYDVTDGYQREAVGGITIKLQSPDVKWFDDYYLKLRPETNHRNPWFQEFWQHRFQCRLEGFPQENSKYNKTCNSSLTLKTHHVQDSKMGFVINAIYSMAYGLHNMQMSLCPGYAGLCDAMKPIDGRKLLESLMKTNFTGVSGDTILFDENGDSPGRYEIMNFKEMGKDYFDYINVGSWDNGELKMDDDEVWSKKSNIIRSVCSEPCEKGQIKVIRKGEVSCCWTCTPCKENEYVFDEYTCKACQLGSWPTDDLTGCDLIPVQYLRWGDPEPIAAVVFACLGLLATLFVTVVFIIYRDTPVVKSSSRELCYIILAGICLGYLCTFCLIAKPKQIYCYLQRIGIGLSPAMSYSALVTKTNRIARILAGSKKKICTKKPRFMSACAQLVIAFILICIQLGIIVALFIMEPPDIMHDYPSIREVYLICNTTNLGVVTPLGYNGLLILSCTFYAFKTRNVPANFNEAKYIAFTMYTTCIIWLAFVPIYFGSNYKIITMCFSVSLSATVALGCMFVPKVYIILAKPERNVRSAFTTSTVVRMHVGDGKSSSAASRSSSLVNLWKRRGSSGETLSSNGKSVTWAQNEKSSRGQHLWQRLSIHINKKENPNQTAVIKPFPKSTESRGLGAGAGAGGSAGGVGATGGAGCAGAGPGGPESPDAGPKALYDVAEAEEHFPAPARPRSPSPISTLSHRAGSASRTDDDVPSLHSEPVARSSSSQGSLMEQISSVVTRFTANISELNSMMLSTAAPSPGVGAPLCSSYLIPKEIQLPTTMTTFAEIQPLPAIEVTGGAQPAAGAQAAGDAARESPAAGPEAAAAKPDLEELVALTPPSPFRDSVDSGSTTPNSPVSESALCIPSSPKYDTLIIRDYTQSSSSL
- PROTOCOL DETAILS: Cell-based functional Ca2+ mobilization assay (FDSS), potentiation of glutamate EC20 response
- CONDITION SET: HEK cells transfected with human mGluR5 (H10H or H12H); in presence of EC20 glutamate; read-out: EC50
MEASURED PARAMETER: EC50 (nM)

(I) CC1CN(c2ccc(F)cc2)C(=O)c2cc(COc3ccccc3)nn21 (single isomer, unassigned) [Example 130]
(II) Cc1cc(OCc2cc3n(n2)CCN(c2ccc(F)cc2)C3=O)ccn1
### Prompt Select the item whose EC50 value is smaller, choosing between I and II . I would appreciate it if you answered with the label of your choice.
### Response I

* * *

- STUDY SYSTEM: human mGluR5a receptor (Homo sapiens, UniProt P41594)
- Construct: cDNA subcloned into pcDNA3.1(-)
- PROTOCOL DETAILS: Cell-based functional Ca2+ mobilization assay (FDSS), potentiation of glutamate EC20 response
- CONDITION SET: maximum % effect in concentration-response curve, as percent of response to maximally effective glutamate
MEASURED PARAMETER: Emax (%)

Use these answered entries as a reference point.
O=C1c2cc(COc3ccnnc3)nn2CCN1c1ccc(F)cc1 [Example 201]; 46
Cc1ccncc1N1CCn2nc(COc3ccccc3)cc2C1=O [Example 32]; 74
Cc1cc(OCc2cc3n(n2)CCN(c2ccc(F)cc2)C3=O)ncc1F [Example 180]; 53
Cc1ccc(N2CCn3nc(COc4ccccc4)cc3C2=O)nc1 [Example 16]; 76
COc1nc(N2CCn3nc(COc4ccccc4)cc3C2=O)ncc1Cl [Example 295]; 69

(P) COc1nc(N2C(=O)c3cc(COc4ccccc4)nn3CC2C)ncc1F (stereo not shown) [Example 147]
(Q) Cc1cccc(OCc2cc3n(n2)CCN(c2ccc(F)cc2)C3=O)n1 [Example 173]
### Prompt Which value of Emax (%) is smaller, the one for P or the one for Q ? Bench note: the answer is the label of the chosen record.
### Response Q
(Q: 31%, P: 72%)

(A) O=C1c2cc(COc3ccccc3)nn2CCN1c1cccc(CCF)n1 [Example 75]
(B) CC1CN(CC2CC2)C(=O)c2cc(COc3ccccc3)nn21 (single isomer, unassigned) [Example 129]
(C) Cc1nccc(OCc2cc3n(n2)CCN(c2ccc(F)cc2)C3=O)n1 [Example 182]
### Prompt Ranking field: Emax (%); order: falling. Reply: labels, ordered per the request.
### Response A, C, B

(a) O=C1c2cc(COc3ccccc3)nn2CCN1c1cccc(C2CC2)n1 [Example 66]
(b) Cc1ccnc(OCc2cc3n(n2)CCN(c2ccc(F)cc2)C3=O)n1 [Example 186]
### Prompt Dear colleague, could you let me know whether a or b has the lower recorded Emax (%)? Thanks. Your choice should be expressed through its label.
### Response b

* * *

- STUDY SYSTEM: human mGluR5a receptor (Homo sapiens)
- Construct: cDNA subcloned into pcDNA3.1(-)
- PROTOCOL DETAILS: Cell-based functional Ca2+ mobilization assay (FDSS), potentiation of glutamate EC20 response
- CONDITION SET: maximum % effect in concentration-response curve, as percent of response to maximally effective glutamate
MEASURED PARAMETER: Emax (%)

Examples with answers:
COc1cnc(C)nc1N1CCn2nc(COc3ccccc3)cc2C1=O [Example 119]; 72
Cc1cncc(OCc2cc3n(n2)CCN(c2ccc(F)cc2)C3=O)n1 [Example 200]; 21

(A) COc1cc(C)cc(N2CCn3nc(COc4ccccc4)cc3C2=O)n1 [Example 104]
(B) CN(C)c1cccc(OCc2cc3n(n2)CCN(c2ccc(F)cc2)C3=O)n1 [Example 310]
(C) COC[C@@H]1Cn2nc(COc3ccccc3)cc2C(=O)N1c1ccc(F)cc1 [Example 270]
### Prompt Rank the items in ascending order with respect to Emax. Answer by listing the labels in the requested order.
### Response B, C, A
